Test: Restrictive medium S. cerevisiae growth inhibition, OD615, pilot screen of yeast lifespan reduction project, restrictive growth control (AID 706);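 also: modified DeaD lifespan yeast strain shifted to restrictive glucose medium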
Details: OD615, 48 h, at 10 µM, hits give high values
Answer each item with its documented growth inhibition.
Quick reminder: number only, in %, skip the unit.

Input: Please look up its growth inhibition: CCN(CC)C(=O)C(C)N(C#N)c1nc(NC(C)C)nc(NC(C)C)n1 (stereo not drawn)
Output: -0.315

Input: Please look up its growth inhibition: CC1=CS/C(=C(/C#N)C(=O)N2CCCCC2)N1c1ccccc1
Output: -8.34

Input: Please look up its growth inhibition: CNC(=O)C1C2C=CC3(O2)C1C(=O)N(CCOC)C3C(=O)NCc1ccc(OC)cc1 (stereo not drawn)
Output: 0.24

Input: Please look up its growth inhibition: Cc1cc(-c2nnc(-c3cc4ccccc4oc3=O)o2)c(C)n1-c1ccccc1
Output: -2.88

Input: Please look up its growth inhibition: O/N=C(/Cc1ccccn1)c1ccccc1
Output: 7.06

Input: Please look up its growth inhibition: O=C(Nc1ccc(N2CCCC2)c(Cl)c1)c1ccc(Br)o1
Output: 17

Input: Please look up its growth inhibition: O=C(CSc1nc2c(c(=O)n1-c1ccc(Br)cc1)SCC2)NCc1ccco1
Output: -1.07

Input: Please look up its growth inhibition: CCSc1nnc(NC(=O)CSc2nc3c(c(=O)n2CCOC)SC(C)C3)s1 (stereo not drawn)
Output: -1.1

Input: Please look up its growth inhibition: CCn1nc(C(=O)NC2=NCCS2)c2ccccc2c1=O
Output: -1.14

Input: Please look up its growth inhibition: O=C(c1ccc(CN2CCOCC2)cc1)N1CCC(Cc2ccccc2)CC1
Output: -3.29

Input: Please look up its growth inhibition: CCCCNC(=O)CS(=O)Cc1nc(-c2cccc(C)c2)oc1C (stereo not drawn)
Output: -6.67

Input: Please look up its growth inhibition: O=C(NCCCN1CCOCC1)NC12CC3CC(CC(C3)C1)C2
Output: 2.31

Input: Please look up its growth inhibition: CCc1cccc(OCCCCNCCOC)c1
Output: -11.6

Input: Please look up its growth inhibition: CCn1c(=NC(=O)CN2C(=O)CCC2=O)sc2c(OC)ccc(OC)c21
Output: -14.7

Input: Please look up its growth inhibition: Cc1oc(-c2ccc(Cl)cc2)nc1CN1CCCC(C(=O)N2CCN(C(=O)c3ccco3)CC2)C1 (stereo not drawn)
Output: -14.5

Input: Please look up its growth inhibition: CC1(C)Cc2c(sc3c2c(=N)n(Cc2ccco2)c(=O)n3CC(=O)Nc2cccc(Cl)c2)CO1
Output: -8.69

Input: Please look up its growth inhibition: CCNc1nc(-c2ccc(Cl)cc2)cs1
Output: 0.05

Input: Please look up its growth inhibition: COC(=O)CCC(=O)Oc1ccc(OC(=O)CCC(=O)OC)cc1
Output: 2.51

Input: Please look up its growth inhibition: CC(C)CC(NC(=O)C1CCC(C)CC1)C(=O)Nc1ccccn1 (stereo not drawn)
Output: 2.61

Input: Please look up its growth inhibition: Cc1cccn2c(=O)c3cc(C(=O)NCCCN4CCOCC4)n(C)c3nc12
Output: -3.14

Input: Please look up its growth inhibition: Cc1ccc(OCCCC(=O)Nc2nncs2)cc1
Output: -13.4

Input: Please look up its growth inhibition: COc1cc(OC)cc(C(=O)NCC2CCCO2)c1 (stereo not drawn)
Output: 10.1

Input: Please look up its growth inhibition: N=c1c2c(n(Cc3ccc(F)cc3)c3c1CCC3)CCC2
Output: -14.7

====

Experiment: OD615 S. cerevisiae growth inhibition, permissive medium, pilot counter-assay, permissive growth control for S. cerevisiae lifespan shortening project (AID 705)
Conditions: OD615, 24 h, at 10 µM, hits give high values
Property Name: growth inhibition (%)
Quick reminder: number only, in %, skip the unit.

Input: Please look up its growth inhibition: CCN(CC)S(=O)(=O)c1cc(Br)ccc1OC
Output: 9.34

Input: Please look up its growth inhibition: CCN1CCN(C(=O)C2c3cc(OC)c(OC)cc3C(=O)N(C)C2c2ccc(SC)cc2)CC1 (stereo unspecified)
Output: -12.5

Input: Please look up its growth inhibition: CCOc1ccccc1C1C(C(N)=O)=C(C)Nc2nc(CCCO)nn21 (stereo unspecified)
Output: -13.8

Input: Please look up its growth inhibition: O=C(c1ccccc1)C(Sc1ncn[nH]1)c1ccccc1 (stereo unspecified)
Output: -8.75

Input: Please look up its growth inhibition: COC(=O)Cn1c(=NC(=O)CSC(C)=O)sc2ccccc21
Output: 4.79

Input: Please look up its growth inhibition: COC(=O)C(C)NC(=O)C1CCCN1S(=O)(=O)c1cc(C)c(Cl)cc1C (stereo unspecified)
Output: -5.19

====

Test: growth suppression of PTEN-deleted HCT116, pilot screen, cell-based, HCT116 clonal line, CellTiter-Glo (AID 824);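 also: 0% = 20 µM Hyamine control and 100% = vehicle cell control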
Settings: 60 h, at 10 µM, hits give low values
Inconclusive results are not listed.
Property Name: viability (%)
Quick reminder: number only, in %, skip the unit.

Input: Please look up its viability: COC(=O)c1cn(NC(=O)c2ccncc2)c(=O)c2ccccc12
Output: 94.9

Input: Please look up its viability: CCC(C)NC(=O)c1ccc(CS(=O)(=O)c2ccc(OC)cc2)o1 (stereo unspecified)
Output: 93.2

Input: Please look up its viability: O=C(N1CCOCC1)N1CCN(c2ccccc2F)CC1
Output: 99.7

Input: Please look up its viability: CCOC(=O)Cc1csc(NC(=O)Nc2ccccc2)n1
Output: 53.2

Input: Please look up its viability: CCN(CC)CCNC(=O)Cn1nc(Cc2cccnc2)c2ccccc2c1=O
Output: 97.7

Input: Please look up its viability: O=C(NCCCn1ccnc1)c1cccc(S(=O)(=O)Nc2ccccc2F)c1
Output: 92.8

====

Answer each item with its documented inhibition.
Experiment: inhibitors of the yeast RAM network, pilot screen, dse1pr::URA3 reporter, 5-FOA selection (AID 869);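 also: 0% = DMSO wells with no growth and 100% = 10 µM 1-NA-PP1 with full growth; RAM network block rescues cells from 5-FOA so hits raise OD615 growth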
Conditions: S. cerevisiae dse1pr::URA3 5-FOA growth, OD615, 2 d; at 10 µM; hits give high values; strain carries analog-sensitive mutant Cbk1 kinase
Quick reminder: number only, in %, skip the unit.

Input: Please look up its inhibition: O=C(NCc1ccco1)C1CCN(C(=O)Cc2ccccc2)CC1
Output: 1.32

Input: Please look up its inhibition: Cc1cc(NC(=O)c2cc(-c3cccs3)nc3ccccc23)no1
Output: 2.11

Input: Please look up its inhibition: CCCCCn1c(=O)[nH]c2cc(C(=O)NCc3ccc4c(c3)OCO4)ccc2c1=O
Output: 3.82

Input: Please look up its inhibition: COc1ccc(C(=O)c2c[nH]c3ccccc23)cc1
Output: 0.695

Input: Please look up its inhibition: Cc1sc(NC(=O)CCCC(=O)O)c(C#N)c1C
Output: 1.27

Input: Please look up its inhibition: CCOc1cc(/C=N/O)cc(Br)c1OC
Output: 1.22

Input: Please look up its inhibition: O=C(CCS(=O)(=O)c1cccc2nsnc12)N1CCN(C(=O)c2ccco2)CC1
Output: 0.36

Input: Please look up its inhibition: CCOC(=O)N1CCC(NC(=O)CSCc2nc(-c3sccc3C)oc2C)CC1
Output: 1.34

Input: Please look up its inhibition: CN(CCNC(=O)c1cc2c(=O)n(C)c3ccccc3c2n1C)Cc1ccccc1
Output: 1.83

Input: Please look up its inhibition: CC1CCN(CC(O)COc2cccc(F)c2)CC1 (stereo unspecified)
Output: -0.65

Input: Please look up its inhibition: O=C(CSc1nc(-c2ccccc2)c(-c2ccccc2)o1)N1CCOCC1
Output: 2.38

Input: Please look up its inhibition: CCCCCSc1nc2c(c(=O)[nH]c(=O)n2C)n1CCc1ccccc1
Output: 2.75

Input: Please look up its inhibition: CCn1cc(C(=O)NCCCN2CC(C)CC(C)C2)c2cc(OC)c(OC)cc2c1=O (stereo unspecified)
Output: 1.03

Input: Please look up its inhibition: CCc1c(C)sc(NC(=O)C2CCCCC2C(=O)O)c1C(N)=O (stereo unspecified)
Output: 1.77

Input: Please look up its inhibition: O=C(Oc1ccc2c(=O)c(Cl)coc2c1)c1ccncc1
Output: 0.015

Input: Please look up its inhibition: CCOC(=O)c1cnc2ccc(Br)cc2c1NCC(C)O (stereo unspecified)
Output: 1.19

Input: Please look up its inhibition: O=C(C1Cc2ccccc2O1)N1CCCCC1 (stereo unspecified)
Output: 0.17

Input: Please look up its inhibition: CC(c1ccccc1)C1C(C#N)=C(N)OC2=C1C(=O)CC(C)(C)C2 (stereo unspecified)
Output: 1.78

Input: Please look up its inhibition: Cc1ccc(N2CC(C(=O)OCC(=O)C(C)(C)C)CC2=O)cc1 (stereo unspecified)
Output: 0.56

Input: Please look up its inhibition: COC(=O)CC1SC(=O)NC1=Nc1ccccc1 (stereo unspecified)
Output: 1.42

Input: Please look up its inhibition: c1ccc(-c2noc(CSc3nnnn3-c3ccccc3)n2)cc1
Output: 0.485

Input: Please look up its inhibition: O=C(CN1CCN(c2ccccn2)CC1)Nc1cccc(C(F)(F)F)c1
Output: 2.27

Input: Please look up its inhibition: CCOC(=O)C1CCCN(C(=O)c2cn(CC)c3ccc(S(=O)(=O)N(C)C)cc3c2=O)C1 (stereo unspecified)
Output: 0.85

Input: Please look up its inhibition: C/C(=C1/SC(=S)N(CCC(=O)O)C1=O)c1ccc(O)cc1
Output: 1.2

Input: Please look up its inhibition: CCOc1ccccc1Nc1ncnc2c1cnn2-c1ccccc1
Output: 2.2

Input: Please look up its inhibition: CCCc1cc(C(=O)N2CCN(C(c3ccccc3)c3ccccc3)CC2)no1
Output: 0.485

Input: Please look up its inhibition: COc1cccc(-c2nnc(NC(=O)C3CCCCC3)o2)c1
Output: 1.85

Input: Please look up its inhibition: O=C(Nc1cccc(Cl)c1Cl)c1ccncc1
Output: 1.85

Input: Please look up its inhibition: Cc1ccc(CNC(=O)CCS(=O)(=O)c2cccc3nonc23)cc1
Output: 1.71

Input: Please look up its inhibition: COC(=O)C1CCN(C(c2ccc(OC)c(OC)c2)c2sc3nc(C)nn3c2O)CC1 (stereo unspecified)
Output: -1.08

Input: Please look up its inhibition: C=CCNC(=O)C1CC(=O)N(c2ccc(C)cc2)C1 (stereo unspecified)
Output: 0.995

Input: Please look up its inhibition: CCOc1ccc(C(=O)Nc2c3c(nn2-c2ccc(C)cc2)CS(=O)C3)cc1OCC (stereo unspecified)
Output: 2.23

Input: Please look up its inhibition: C=CCOC(=O)C1=C(C)NC(C)=C(C(=O)OCC=C)C1c1ccc(O)cc1
Output: 0.035

Input: Please look up its inhibition: CCCCN1C(=O)C2C(c3ccc(OC)cc3O)NC(CC(C)C)(C(=O)O)C2C1=O (stereo unspecified)
Output: 0.895

Input: Please look up its inhibition: Cc1cc(C)n2nc(S(=O)(=O)NC3CCCCC3)nc2n1
Output: 1.06

Input: Please look up its inhibition: Cc1onc(-c2ccccc2)c1C(=O)N1CCN(C/C=C/c2ccccc2)CC1
Output: 2.72

Input: Please look up its inhibition: CC(=O)c1ccc(OCC(O)CN2CCOCC2)cc1 (stereo unspecified)
Output: 2.42

Input: Please look up its inhibition: CN=C1SC(CC(=O)Nc2ccccc2F)C(=O)N1C (stereo unspecified)
Output: 1.99

Input: Please look up its inhibition: O=C(Nc1ccccc1Cl)N1CCN(c2ccccn2)CC1
Output: 1.91

Input: Please look up its inhibition: Clc1ccccc1CSc1nnc(-c2ccccn2)n1Cc1ccco1
Output: 1.92

Input: Please look up its inhibition: CCc1ccccc1S(=O)(=O)Cc1ccc(C(=O)NCc2ccc3c(c2)OCO3)o1
Output: 1.87

Input: Please look up its inhibition: CCOc1cc(C2NC(=O)NC(C)=C2C(=O)OC(C)CC)cc(Br)c1O (stereo unspecified)
Output: 2.17

Input: Please look up its inhibition: Cc1sc(NC(=O)c2ccco2)c(C(c2cccnc2)N2CCN(c3ccc(F)cc3)CC2)c1C (stereo unspecified)
Output: 1.42

Input: Please look up its inhibition: C=CCc1cc(/C=N/n2cnnc2)cc(OCC)c1O
Output: 0.925

Input: Please look up its inhibition: O=C1C(Cl)=C(Nc2ccccc2O)C(=O)N1c1ccccc1
Output: 2.32

Input: Please look up its inhibition: Cc1cc(C)c(NC(=O)C(C)(C)C)c(Cl)c1
Output: 1.72
